I'd be grateful if you could share measured IC50 for these entries.
molecular target: recombinant human Meningioma Expressed Antigen 5 (MGEA5), also referred to as O-GlcNAcase (OGA) (Homo sapiens, UniProt O60502); construct: Full length OGA enzyme was purchased at OnGene (cat #TP322411); purchased OnGene (so in the source); experiment: OGA biochemical assay (inhibition of FM-GlcNAc hydrolysis, fluorescence); conditions: read-out: Enzymatic hOGA, pIC50 (converted)
Give bare numbers, in µM.

# example entries with known answers
{"compound": "Cc1cc([C@@H]2CCCN([C@H](C)c3cc4c(cc3F)OCCO4)C2)cc(C(F)(F)F)n1 (single isomer, unassigned)", "IC50 / µM": 0.501}
{"compound": "COc1cc(C2CCCN(C(C)c3cc4c(cc3F)OCCO4)C2)cc(C(F)(F)F)n1 (stereo not shown)", "IC50 / µM": 0.02}
{"compound": "Cc1cc(C[C@H]2CCCN(Cc3cc4c(cc3C)OCCO4)C2)cc(C)n1", "IC50 / µM": 0.794}
{"compound": "Cc1cc([C@H]2CCCN(C(C)c3nc4c(cc3F)CCO4)C2)cc(C)n1 (single isomer, unassigned)", "IC50 / µM": 0.00251}
{"compound": "Cc1cc(CC2(F)CCCN([C@@H](C)c3nc4c(cc3F)OCCO4)C2)cc(C)n1 (single isomer, unassigned)", "IC50 / µM": 1}
{"compound": "Cc1cc(C[C@H]2CCCN(C(C)c3cc4c(cc3F)OCCO4)C2)cc(C)n1 (mixture of isomers) [Product 40]", "IC50 / µM": 0.002}

Consider now this further compound.
Record Cc1cc(OC[C@H]2CCCN(C(C)c3cc4c(cc3F)NCCO4)C2)cc(C)n1 (stereo partly shown) , field IC50: 0.00501

###

Please go through the items and note down their Emax.
biological target: recombinant human Meningioma Expressed Antigen 5 (MGEA5), also referred to as O-GlcNAcase (OGA) (Homo sapiens, UniProt O60502); construct: Full length OGA enzyme was purchased at OnGene (cat #TP322411); purchased OnGene (so in the source); assay: OGA biochemical assay (inhibition of FM-GlcNAc hydrolysis, fluorescence); conditions: maximal effect, read-out: Enzymatic Emax (%)
One number for each entry, in %.

Here is how some compounds turned out for Emax.
{"compound": "Cc1cc(OC[C@H]2CCCN(C(C)c3cnc4c(c3)OCCN4)C2)cc(C)n1 (stereo partly shown)", "Emax, %": 99}
{"compound": "Cc1cc([C@H]2CCCN([C@@H](C)c3ccc4c(n3)OCCO4)C2)cc(C)n1 (single isomer, unassigned)", "Emax, %": 91}

Working through the 5 compounds below one at a time, give Emax for each.
1. Cc1cc(CO[C@H]2CCCN([C@H](C)c3ccc4c(n3)OCCO4)C2)cc(C)n1 (mixture of isomers)
2. Cc1cc([C@H]2CCCN([C@@H](C)c3ccc4c(c3)OCC4)C2)cc(C)n1 (single isomer, unassigned) [Product 5]
3. Cc1cc([C@H]2CCCN([C@H](C)c3cc4c(cc3F)OCCO4)C2)cc(C(F)(F)F)n1 (single isomer, unassigned)
4. COc1cc(C2CCCN(C(C)c3cc4c(cc3F)OCCO4)C2)cc(C(F)(F)F)n1 (stereo not shown)
5. Cc1cc(C[C@H]2CCCN(C(C)c3ccc4c(n3)OCCO4)C2)cc(C)n1 (mixture of isomers) [Product 44]

## Result
1: 98; 2: 102; 3: 52; 4: 103; 5: 101

List reported Emax for each of these compounds:
1. Cc1cc(OC2CCCN(C(C)c3cnc4c(c3)OCCN4)C2)cc(C)n1 (stereo not shown)
2. Cc1cc(C[C@H]2CCCN(C(C)c3cc4c(cc3F)OCCO4)C2)cc(C)n1 (mixture of isomers) [Product 40]
3. Cc1cc(NC[C@H]2CCCN([C@H](C)c3ccc4c(n3)OCCO4)C2)cc(C(F)(F)F)n1 (single isomer, unassigned)
4. COc1cc(NCC2CCCN(C(C)c3cc4c(cc3F)OCCO4)C2)cc(C)n1 (stereo not shown)
5. Cc1cc(C[C@H]2CCCN(C(C)c3ccc4c(c3)OCCN4C)C2)cc(C)n1 (mixture of isomers)
6. Cc1cc(OC[C@@H]2CCCN(C(C)c3ccc4c(n3)OCCO4)C2)cc(C)n1 (mixture of isomers)
7. Cc1cc(C[C@H]2CCCN(C(C)c3cnc4c(c3)OCCO4)C2)cc(C)n1 (stereo partly shown) [Product 130]
8. COc1cc(C2CCCN(C(C)c3ccc4c(n3)OCCO4)C2)cc(C(F)(F)F)n1 (stereo not shown)

## Result
[101, 101, 99, 102, 103, 98, 101, 100]

###

target: OGA (Homo sapiens); construct: endogenous in cells; host or cells: HEK293 cells inducible for P301L mutant human Tau (2N4R); assay: OGA cellular assay (ICC detection of O-GlcNAcylated proteins in HEK293 cells inducible for P301L mutant human Tau); assay type: cell-based; conditions: HEK293, HEK293 cells inducible for P301L mutant human Tau, maximal effect; Thiamet G 200 uM as maximum
Sequence (O60502 whole entry): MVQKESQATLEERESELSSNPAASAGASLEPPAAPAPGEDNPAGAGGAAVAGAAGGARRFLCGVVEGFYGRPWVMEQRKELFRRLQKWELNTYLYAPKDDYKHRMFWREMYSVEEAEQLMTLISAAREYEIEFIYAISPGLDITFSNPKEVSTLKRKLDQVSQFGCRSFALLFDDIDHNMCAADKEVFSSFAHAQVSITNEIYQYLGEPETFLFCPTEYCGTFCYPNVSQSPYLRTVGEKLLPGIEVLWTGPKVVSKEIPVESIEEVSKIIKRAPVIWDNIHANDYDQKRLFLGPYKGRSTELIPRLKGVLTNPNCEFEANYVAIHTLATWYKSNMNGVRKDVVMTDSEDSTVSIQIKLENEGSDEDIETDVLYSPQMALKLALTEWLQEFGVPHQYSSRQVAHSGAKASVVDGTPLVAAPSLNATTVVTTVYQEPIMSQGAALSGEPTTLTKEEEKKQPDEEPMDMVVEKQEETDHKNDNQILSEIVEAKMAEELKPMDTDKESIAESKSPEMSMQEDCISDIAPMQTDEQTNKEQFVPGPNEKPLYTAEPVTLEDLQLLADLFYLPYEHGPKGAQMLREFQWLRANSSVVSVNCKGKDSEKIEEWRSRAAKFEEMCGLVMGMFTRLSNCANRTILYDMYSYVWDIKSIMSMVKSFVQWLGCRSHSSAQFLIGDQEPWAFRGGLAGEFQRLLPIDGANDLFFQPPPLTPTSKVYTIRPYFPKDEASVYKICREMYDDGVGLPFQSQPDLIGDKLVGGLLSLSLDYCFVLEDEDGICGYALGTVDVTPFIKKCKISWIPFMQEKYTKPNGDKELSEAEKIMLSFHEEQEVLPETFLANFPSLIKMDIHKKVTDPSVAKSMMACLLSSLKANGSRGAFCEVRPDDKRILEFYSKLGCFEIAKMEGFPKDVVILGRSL
assay-readout: Emax (%)
One number for each entry, in %.

Record excerpt, results attached:
{"compound": "COc1cc(NCC2CCCN(C(C)c3ccc4c(c3)OCC4)C2)cc(C)n1 (centres unmarked)", "measurement-target": "OGA (Homo sapiens)", "assay-readout": "Emax", "obs-value": 81}
{"compound": "Cc1cc(OC[C@H]2CCCN(C(C)c3cnc4c(c3)OCCN4)C2)cc(C)n1 (some centres unmarked)", "measurement-target": "OGA (Homo sapiens)", "assay-readout": "Emax", "obs-value": 79}
{"compound": "Cc1cc(OC[C@H]2CCCN([C@@H](C)c3ccc4c(n3)OCCO4)C2)cc(C)n1 (single isomer, unassigned)", "measurement-target": "OGA (Homo sapiens)", "assay-readout": "Emax", "obs-value": 2}
{"compound": "Cc1cc(C2CCCN(C(C)c3nc4c(cc3F)OCCO4)C2)cc(C)n1 (centres unmarked)", "measurement-target": "OGA (Homo sapiens)", "assay-readout": "Emax", "obs-value": 85}
{"compound": "Cc1cc(C[C@H]2CCCN(C(C)c3ccc4c(n3)OCCO4)C2)cc(C)n1 (mixture of isomers)", "measurement-target": "OGA (Homo sapiens)", "assay-readout": "Emax", "obs-value": 91}

Each of the following entries comes with a recorded value; kindly state Emax for each.
1. Cc1cc(CO[C@H]2CCCN(C(C)c3nc4c(cc3F)OCCO4)C2)cc(C)n1 (some centres unmarked)
2. Cc1cc(OC2CCCN(C(C)c3ccc4c(n3)OCCO4)C2)cc(C(F)(F)F)n1 (centres unmarked)
3. Cc1cc(NCC2CCCN(C(C)c3ccc4c(n3)OCCO4)C2)cc(C(F)(F)F)n1 (single isomer, unassigned)

## Result
[69, 16, 83]

###

biological target: recombinant human Meningioma Expressed Antigen 5 (MGEA5), also referred to as O-GlcNAcase (OGA) (Homo sapiens, UniProt O60502); construct: Full length OGA enzyme was purchased at OnGene (cat #TP322411); purchased OnGene (so in the source); assay: OGA biochemical assay (inhibition of FM-GlcNAc hydrolysis, fluorescence); details: read-out: Enzymatic hOGA, pIC50 (converted)
Please go through the items and note down their log10 of IC50.
Values reflect log10 of reported IC50 (nM).

Use these answered entries as a reference point.
{"compound": "Cc1cc(C[C@H]2CCCN(C(C)c3cnc4c(c3)OCCN4)C2)cc(C)n1 (single isomer, unassigned) [Product 52]", "log10 of IC50": 0.10}
{"compound": "Cc1cc(C[C@H]2CCCN(C(C)c3ccc4c(n3)OCCO4)C2)cc(C(F)(F)F)n1 (mixture of isomers)", "log10 of IC50": 1.10}
{"compound": "CC(c1nc2c(cc1F)OCCO2)N1CCC[C@H](NCc2ccc(F)cc2)C1 (stereo partly shown)", "log10 of IC50": 1.60}
{"compound": "COc1cc(C[C@H]2CCCN([C@H](C)c3ccc4c(n3)OCCO4)C2)cc(C)n1", "log10 of IC50": 0.60}
{"compound": "Cc1cc(C[C@H]2CCCN(C(C)c3cnc4c(c3)OCCN4)C2)cc(C)n1 (single isomer, unassigned) [Product 51]", "log10 of IC50": 2.30}
{"compound": "Cc1cc(C[C@H]2CCCN(C(C)c3ccc4c(c3)OCC4)C2)cc(C)n1 (mixture of isomers)", "log10 of IC50": 0.60}
{"compound": "Cc1cc(C2CCCN(C(C)c3ccc4c(n3)OCCO4)C2)cc(C(F)F)n1 (stereo not shown)", "log10 of IC50": 1.00}
{"compound": "Cc1cc(OC[C@H]2CCCN(C(C)c3nc4c(cc3F)CCO4)C2)cc(C)n1 (single isomer, unassigned) [Product 180]", "log10 of IC50": 0.20}

Return reported log10 of IC50 values for all items listed beneath this line.
1. Cc1cc(CN[C@H]2CCCN(C(C)c3ccc4c(n3)OCCO4)C2)cc(C)n1 (stereo partly shown)
2. CC(c1ccc2c(n1)OCCO2)N1CCCC(Oc2ncc(F)cc2F)C1 (stereo not shown)
3. Cc1cc(CO[C@H]2CCCN(C(C)c3nc4c(cc3F)OCCO4)C2)cc(C)n1 (stereo partly shown) [Product 168]
4. Cc1cc(NCC2CCCN(C(C)c3cc4c(cc3F)OCCO4)C2)cc(C)n1 (stereo not shown)

## Result
1.30
2.20
0.50
0.70
